Data credit: PubChem BioAssay AID540336

Reported inhibition values for a set of molecules
study target: Histone acetyltransferase RTT109 (Candida albicans (strain SC5314 / ATCC MYA-2876))
experiment: inhibitors of C. albicans Rtt109/Vps75 HAT, primary screen, biochemical, ThioGlo CoA-SH fluorescence, plate reader (AID 540336)
particulars: purified Rtt109/Vps75, ThioGlo CoA-SH fluorescence, 4 h; at 34.9 µM; active compounds read high
Hit rate of the full screen: of about 330,000 compounds, about 520 (0.16%) were called active. The full list was thinned out, with actives kept by preference.
Use % as the unit, but write only the number.

The cases that follow already have their inhibition on record.
Cc1cc(C)nc(N2CCC(C(=O)Nc3ccc4c(c3)OCCO4)CC2)n1 | 54.4
Cc1ccc(C(=O)CSc2ccccc2C(=O)O)cc1 | -2.24
Cc1ccc(S(=O)(=O)N2CCN(C(=O)COC(=O)/C=C/c3cccc(Cl)c3)CC2)c(C)c1 | 5.03
C=CCOC(=O)N1CCC2CC1c1cc(-c3ccc(OC)cc3)ccc12 (stereo not given) | -3.1
CCCCc1nnc(NC(=O)CSc2nc(C)cc(=O)[nH]2)s1 | -0.892
Cc1ccc(S(=O)(=O)c2cc3c(=O)n4cccc(C)c4nc3n(CCc3ccccc3)c2=N)cc1C | 0.852

// below: inhibition requested for another molecule
What value of inhibition has been reported for the following molecule? O=C(Nc1ccc2c(c1)OCCO2)C1CCCC1 -1.87
